experiment: phase I study: plasma pharmacokinetics; type: in vivo, patients; conditions: human, plasma, oral, multiple-dose administration, PIC and ECT; read-out: overall mean steady-state t1/2 (terminal half-life) (converted)
readout kind: half-life

Problem: Can you look up the measured half-life of COc1cc(Nc2ncc3c(n2)-c2ccc(Cl)cc2C(c2c(F)cccc2OC)=NC3)ccc1C(=O)O [MLN8237, alisertib] for me?
Solution: ~19 h

----------
assay: phase I study: plasma pharmacokinetics; format: in vivo, patients; settings: human, plasma, oral, 40 mg, ECT 40 mg BID, 7-day schedule, Day 7, N 8; read-out: Median Tmax (range)
readout kind: Tmax (h)
# output: bare number, implied unit h

Problem: Can you share its Tmax? I mean this compound: COc1cc(Nc2ncc3c(n2)-c2ccc(Cl)cc2C(c2c(F)cccc2OC)=NC3)ccc1C(=O)O [MLN8237, alisertib]
Solution: 2
